assay: basal RPMI8226 mitochondrial membrane potential changes, profiling panel, cell-based, JC-1 fluorescence, 24 h, 100 nL compound (AID 1169); conditions: RPMI8226 myeloma, JC-1 mitochondrial potential fluorescence, higher = more signal
Parameter threshold = -0.6. Response is Criterion met when z-score meets or exceeds it, else Criterion not met.

Data request: Is z-score for C[N+](C)(C)CCCCCCNC(=O)[C@@H]1C[C@@H]2C(=O)N[C@@H](Cc3ccccc3)C(=O)N2[C@@H]1c1ccc(O)cc1 at or above -0.6?
Data returned: Criterion not met

Data request: State whether the measured z-score reaches -0.6, counting equality as reaching it, for COC(=O)[C@@]1(Cc2ccc(F)cc2)[C@H]2c3cc(C(=O)N4CCCC4)n(CCO)c3C[C@H]2CN1C(=O)c1ccccc1
Data returned: Criterion met

Next:
Data request: Determine whether this compound has z-score no lower than -0.6: N#Cc1ccc(C(O)C2C=CC3C(=O)N(c4ccccc4)C(=O)C3N2Nc2ccc([N+](=O)[O-])cc2)cc1 (stereo unspecified)
Data returned: Criterion met

Data request: Is the recorded value of z-score equal to or greater than -0.6 for this compound? COCCOC(=O)N1C(=O)[C@@]2(c3cc(C#CC4=CCCCC4)ccc31)[C@H](C(=O)N1CCN(c3ncccn3)CC1)[C@H]1C(=O)O[C@H](c3ccccc3)[C@H](c3ccccc3)N1[C@@H]2c1ccccc1OCCO
Data returned: Criterion not met

Data request: Answer whether z-score of C=CCC(OC(C)=O)[C@@H]1[C@@H](N(Cc2cc3ccccc3o2)C(=O)Cc2ccc(OC)cc2)c2cc(OCCCO)ccc2N1C(=O)Cc1ccc(OC)cc1 (stereo partly specified) is greater than or equal to -0.6.
Data returned: Criterion met

Data request: Textbook exercise: given the entry COC(=O)[C@@]1(Cc2ccc(OC)cc2)[C@@H]2[C@@H](CC(=O)[C@H]2CC(=O)C(=O)N2CCCC2)CN1C(=O)c1ccccc1 , state whether its z-score is greater than or equal to -0.6.
Data returned: Criterion not met

---

For each of the compounds below, state its z-score.
test: E. coli acrAB mutant growth effects, primary screen, E. coli filamentation inducers, strain DRC39, OD650, 48 h (AID 1179);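 also: screen aims at cell division blockers that make cells filament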; conditions: E. coli DRC39 delta-acrAB growth, higher = more signal, called active from +8 up or from −8 down
Give bare numbers.

Data request: Answer with reported z-score of COC(=O)c1c(CC[C@@H](CO)NC(=O)N[C@@H](Cc2ccccc2)Cn2cc(-c3cncn3C)nn2)oc(C(C)=O)c1C(=O)OC
Data returned: 0.438

Data request: Determine from records and report z-score for CCOC(=O)C1=CC[C@@H](c2ccccc2)N(S(=O)(=O)c2ccc(C)cc2)[C@H]1C#N
Data returned: 0.27

---
Data request: Answer with reported z-score of COCCOC(=O)N1C(=O)[C@@]2(c3cc(C#CC4(O)CCCCCC4)ccc31)[C@H](c1ccccc1OCCO)N1[C@H](c3ccccc3)[C@H](c3ccccc3)OC(=O)[C@H]1[C@@H]2C(=O)N1CCCCCCC1
Data returned: 0.003

---

system: XIP peptide (Xip251-270) binding; assay: small-molecule binders of XIP peptide, primary screen, biochemical, small-molecule microarray, fluorescence 635/667 nm, 0.1 µg/mL protein (AID 1182); conditions: fluorescent protein binding, 635 nm, higher = more signal, called active from +8 up or from −8 down
MEASURED QUANTITY: composite z-score
Answers are plain numbers.

Example entries and their recorded answers appear below.
Data request: Look up and state reported composite z-score for COC(=O)[C@@]1(Cc2ccc(F)cc2)[C@H]2c3cc(C(=O)N(C)C)n(CCO)c3C[C@H]2CN1C(=O)c1ccccc1
Data returned: 1.79

Data request: Answer with the recorded composite z-score of COC(=O)[C@]1(CO)N=C(c2ccc(OCCCO)cc2)O[C@@H]1c1ccccc1CN=[N+]=[N-] only.
Data returned: 0.495

Data request: Look up composite z-score of [N-]=[N+]=NCc1ccccc1[C@H]1OC(c2ccc(OCCCO)cc2)=N[C@@]1(Cc1ccccc1)C(=O)N1CCOCC1 and report it.
Data returned: 0.0472

Data request: Output measured composite z-score for this item: CCCC=C(CCC)[C@@H](NS(=O)(=O)c1ccc(Cl)cc1)c1ccccc1
Data returned: -0.641

Data request: Supply measured composite z-score of CCOC(=O)C1=CC[C@@H](c2ccccc2Cl)N(S(=O)(=O)c2ccc(C)cc2)[C@H]1c1cccc(OC)c1 in your reply.
Data returned: 0.211

Data request: For the compound CCCCNC(=O)c1ccc(C#C[Si](C)(C)C)c(OC(C)=O)c1 , report composite z-score.
Data returned: -0.0158

Data request: Given the compound C=C(CCCC)/C(=C/C[C@H](OC(C)=O)c1cccc(OCCO)c1)c1cc(C(=O)OC)ccc1OC , write its reported composite z-score.
Data returned: 0.0894

Data request: Answer with reported composite z-score of COc1ccccc1CN1C(=O)c2ccccc2[C@@H](C(=O)NCCCN(C)C)[C@@H]1c1ccc(CO)cc1
Data returned: -0.0888

Data request: Return the recorded composite z-score value; entry: CCOC(=O)C[C@H]1[C@H](OC(=O)c2cc3ccccc3oc2=O)[C@@H](NC(=O)C2CCCCC2)c2cc(OCCCO)ccc2N1C(=O)Cc1ccc(OC)cc1
Data returned: 0.0512

Data request: Hello, please tell me recorded composite z-score for this one: CC(C)C[C@@H]1NC(=O)[C@@H]2C[C@H](C(=O)O)[C@H](c3ccc(O)cc3)N2C1=O
Data returned: 1.84

Each compound below has a recorded value; state its composite z-score.
1. COCCOC(=O)N1C(=O)[C@@]2(c3cc(C#CCC(C(=O)OC)C(=O)OC)ccc31)[C@H](C(N)=O)[C@H]1C(=O)O[C@H](c3ccccc3)[C@H](c3ccccc3)N1[C@@H]2c1ccc(OCCO)cc1
2. C=CC[C@@]12N=C(c3ccc(OCCCO)cc3)O[C@@H]1c1ccccc1N(Cc1ccccc1)C2=O
3. COc1cccc(C[C@H]2C[C@@H](CO[Si](C(C)C)(C(C)C)C(C)C)N3C(=O)[C@@]4(C(C)=O)O[C@@]23[C@@H]2C(=O)N(C)C(=O)[C@@H]24)c1
4. C=CCC(OC(C)=O)[C@@H]1[C@@H](N(Cc2cccc3ccccc23)C(=O)c2cccc3ccccc23)c2cc(OCCCO)ccc2N1C(=O)Cc1ccc2ccccc2c1 (stereo not given in full)
5. CCOC(=O)C1=CCC(c2cc3ccccc3[nH]2)N(S(=O)(=O)c2ccccc2[N+](=O)[O-])C1 (stereo not given)

Data returned:
1: 0.572; 2: 0.799; 3: 0.234; 4: 0.457; 5: -0.212
